The origin of these recorded values is patent US20180141913A1.

Measured GI50, listed per entry for reference.
System: MCF7-Y537S cells (MCF7 ER-alpha Y537S mutant)
protocol text: In vitro proliferation (viability) assay, MCF7-Y537S cells
Type: cell-based
measurement conditions: Homo sapiens, MCF7; CellTiter-Glo, day 6 vs day 0; average ± standard deviation; free base and/or salt forms; read-out: MCF7 Y537S GI50
observation type: GI50 (nM)

• CNC(=O)/C=C/CNCCOc1ccc(/C(=C(\c2ccccc2)C2CCC2)c2ccc3[nH]ncc3c2)cc1 = 32.7
• O=C(O)/C=C/CNCCOc1ccc(/C(=C(/CC(F)(F)F)c2ccccc2)c2ccc3[nH]nc(F)c3c2)cn1 = 22.2
• CC/C(=C(/c1ccc(OCCNC/C=C/C(=O)NC)nc1)c1ccc2[nH]nc(C)c2c1)c1ccccc1 = 2420
• CNC(=O)/C=C/CNCCOc1ncc(/C(=C(/CC(F)(F)F)c2ccccc2)c2ccc3[nH]nc(F)c3c2)cn1 = 71
• CNC(=O)/C=C/CNCCOc1ccc(/C(=C(/CC(F)(F)F)c2ccc(F)cc2Cl)c2ccc3[nH]nc(F)c3c2)cc1 = 7.25
• CNC(=O)CCCNCCOc1ccc(/C(=C(/CC(F)(F)F)c2ccccc2)c2ccc3[nH]nc(F)c3c2)cc1.Cl = 6.86
• CC/C(=C(/c1ccc(OCCNC/C=C/C(=O)N2CCCC2)nc1)c1ccc2[nH]nc(F)c2c1)c1ccccc1.Cl = 14.5
